// provenance: PubChem BioAssay AID1645838

Assay procedure: supercomplex reporter luminescence per Hoechst cell count – Hoechst nuclei count (AID 1645838);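 further: control cybrid cells; higher means more mitochondrial supercomplex formation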
Protocol conditions: Cells, luminescence/Hoechst cell count ratio, library stock concentration (final well concentration not given) 80 uM, hits give high values
In all, about 2,000 compounds went through this assay and about 100 (5%) were called active. For the sample, actives were picked, then their nearest neighbours and some compounds at random.
Please go through the items and note down their z-score.
Reply: number alone, nothing else.

Look up z-score of O=C(Nc1ccc(N2CCOCC2)cc1)c1n[nH]c2ccccc12 and report it. 0.294

Look up z-score of c1ccc(Cc2ccncc2)cc1 and report it. -0.46

Look up z-score of CCCCCC(O)CCC1C(O)C[C@H]2Cc3c(cccc3OCC(=O)O)C[C@@H]12 (stereo not given in full) and report it. -0.232

Look up z-score of O=C(NOCC1CC1)c1ccc(F)c(F)c1Nc1ccc(I)cc1Cl and report it. 0.248

Look up z-score of CC(Cc1cc2c(c(C(N)=O)c1)N(CCCO)CC2)NCCOc1ccccc1OCC(F)(F)F (stereo not given) and report it. -1.47

Look up z-score of O=C(CCCCCCC(=O)Nc1ccccc1)NO and report it. 0.428

Look up z-score of COc1cc(N2CCC(C(N)=O)CC2)ccc1Nc1nc(N)c(Cl)c(Nc2ccccc2S(=O)(=O)C(C)C)n1 and report it. -0.397

Look up z-score of CC(C)(C)c1ccc(S(=O)(=O)NCc2ccc(C(=O)Nc3cccnc3)cc2)cc1 and report it. -0.216

Look up z-score of c1nc2nc(Nc3ccc(N4CCOCC4)cc3)nc(NC3CCCCC3)c2[nH]1 and report it. -0.0131

Look up z-score of CC(OC1OCCN(Cc2n[nH]c(=O)[nH]2)C1c1ccc(F)cc1)c1cc(C(F)(F)F)cc(C(F)(F)F)c1 (stereo not given) and report it. -0.483

Look up z-score of O=C(NCc1cccnc1)c1ccc(CNS(=O)(=O)c2ccc(F)cc2)cc1 and report it. -0.0415

Look up z-score of Nc1nc(OC(c2ccc(-c3cccc(F)c3)cc2)C(F)(F)F)cc(-c2ccc(CC(N)C(=O)O)cc2)n1 (stereo not given) and report it. -0.00893

Look up z-score of Cc1cc(Nc2cc(N3CCN(C)CC3)nc(Sc3ccc(NC(=O)C4CC4)cc3)n2)n[nH]1 and report it. 5.13

Look up z-score of CN(C)C(=O)c1cc2cnc(Nc3ccc(N4CCNCC4)cn3)nc2n1C1CCCC1 and report it. 0.288

Look up z-score of CC(C)C1C(=O)NC(CCCN=C(N)N)C(=O)NCC(=O)NC(CC(=O)O)C(=O)NC(Cc2ccccc2)C(=O)N1C (stereo not given) and report it. 0.68

Look up z-score of CCOc1ccc(-n2c(C(C)N(Cc3cccnc3)C(=O)Cc3ccc(F)c(C(F)(F)F)c3)nc3ncccc3c2=O)cc1 (stereo not given) and report it. -0.219

Look up z-score of CC(C)(O)c1ccccc1CCC(SCC1(CC(=O)O)CC1)c1cccc(C=Cc2ccc3ccc(Cl)cc3n2)c1 (stereo not given) and report it. 0.0351

Look up z-score of Cc1nc2ccc(-n3ncc(C(=O)c4cc5ccccc5[nH]4)c3N)cc2[nH]1 and report it. -0.114

Look up z-score of CSCCC(NC(=O)C(CC(C)C)NC(=O)CNC(=O)C(NC(=O)C(Cc1ccccc1)NC(=O)C(CO)NC(=O)C(CC(=O)O)NC(=O)[C@H](NC(=O)C(CCCCN)NC(=O)C(N)Cc1cnc[nH]1)C(C)O)C(C)C)C(N)=O (stereo not given in full) and report it. -0.214

Look up z-score of Cn1cnc2c(F)c(Nc3ccc(Br)cc3Cl)c(C(=O)NOCCO)cc21 and report it. 0.846
